Kindly state T/C for each of the entries shown.
Tested on: L1210 leukemia ip in BDF1 mice, survival T/C
Assay: NCI In Vivo Anticancer Drug Screen. Data for tumor model L1210 Leukemia (intraperitoneal) in B6D2F1 (BDF1) mice
Conditions: endpoint: mean survival time; dose: 200.0 mg/kg/injection; schedule: Q04DX003 (ip); vehicle: saline; higher = longer survival
Toxic doses and inconclusive results are not listed.

>  <MOLECULE>
COc1ccccc1OC(=O)Nc1ccc(S(=O)(=O)N(C)C)cc1

>  <T/C>
95 % of control

$$$$

# per-item lookup of T/C; items listed below
1. NCCNCCNCCN
2. C=C1C(=O)OC2CCC3OC3CCC12 (configuration not stated) (tested in a mixture with another compound)
3. OCC(Cl)(Cl)Cl
4. CCc1cc(CC)c(CC)c(CC)c1
5. O=C(Nc1ccc(F)cc1)c1ccc(Cl)cc1Cl
6. Cc1noc(-n2c(C)ccc2C)c1C

Response line:
1. 105 % of control
2. 95 % of control
3. 96 % of control
4. 105 % of control
5. 107 % of control
6. 100 % of control

====

System: L1210 leukemia ip in BDF1 mice, survival T/C
Test: NCI In Vivo Anticancer Drug Screen. Data for tumor model L1210 Leukemia (intraperitoneal) in B6D2F1 (BDF1) mice
Details: endpoint: mean survival time; dose: 200.0 mg/kg/injection; schedule: Q01DX001 (ip); vehicle: saline; higher = longer survival
Procedure: The antitumor activity of compounds was measured in mice bearing transplantable tumors. Survival or tumor size were measured and the results are expressed as the measurement made in the treated group (T) divided by the measurement made in the vehicle treated control group (C). The tumor model used in this assay is L1210 Leukemia (intraperitoneal) in B6D2F1 (BDF1) mice
Inconclusive results and toxic doses are left out.
MEASUREMENT LABEL: T/C

>  <COMPOUND>
C(/C=C/c1ccccc1)=C\c1ccccc1

>  <T/C>
104 % of control

$$$$

# per-item lookup of T/C; items listed below
1. C=CC1CN2CCC1CC2C(=O)c1ccnc2ccc(OC)cc12 (centres undefined)
2. O=S(=O)(Nc1nccs1)c1ccc(N=Nc2ccc(O)c3ncccc23)cc1
3. Cc1ccc(C(C)C)c(OCCN2CC=CC2)c1
4. CCOC(=O)NC(/C=C/c1ccccc1)NC(=O)OCC
5. c1ccc2cc(-c3cc4ccccc4s3)ccc2c1
6. COC(O)C(Cl)(Cl)Cl (centres undefined)
7. O=C(O)C1OC(n2cc(I)c(=O)[nH]c2=O)CC1O (centres undefined)

Response line:
["95 % of control", "102 % of control", "94 % of control", "96 % of control", "103 % of control", "97 % of control", "103 % of control"]

# per-item lookup of T/C; items listed below
1. O=S1(=O)CCN(c2ccccc2CC(c2c[nH]c3ccccc23)c2c[nH]c3ccccc23)CC1
2. CNc1nc(N)nc2c1nc(Cl)n2C1OC(CO)C(O)C1O (centres undefined)
3. O=CNc1c(Cl)c(Cl)c2c(c1Cl)Cc1cc(Cl)ccc1-2
4. CCCCN(CCCC)C(=O)CC(C)(O)c1ccccc1 (centres undefined)
5. O=C(c1ccc(Cl)cc1)C(NCCO)c1ccc(Cl)cc1 (centres undefined)
6. CN(C)S(=O)(=O)c1ccc(NC(=O)OC2CCCCCCC2)cc1
7. O=c1ccc2cccc(O)c2[nH]1

Response line:
1. 86 % of control
2. 92 % of control
3. 91 % of control
4. 94 % of control
5. 95 % of control
6. 94 % of control
7. 94 % of control

# per-item lookup of T/C; items listed below
1. Nc1ccc(CCCC(=O)Nc2ccc(S(=O)(=O)F)cc2)cc1
2. O=C(Nc1ccccc1)c1cc(N2CCOCC2)ccn1
3. Cc1ccc2[nH]c3c(C)c4ccncc4c(C)c3c2c1
4. CCN(CC)CCCC(C)Nc1nc(/C=C/c2ccc(Cl)cc2)nc(Cl)c1-c1ccc(Cl)cc1 (centres undefined)

Response line:
97 % of control
95 % of control
98 % of control
88 % of control
